Every entry's value here was drawn from the supplement of paper PMC7411640.

system: MDA-MB-468; test: phospho-S6 immunofluorescence (DAPI-normalised), per-plate z-score; higher = higher phospho-S6 signal (less pathway suppression); details: co-treatment: lapatinib 1 uM; 24 h
Counter-ions that a name gives are not always drawn.
reported_property: phospho-S6 immunofluorescence (z-score)
Lab note: write the figure by itself, no unit.

compound	phospho-S6 immunofluorescence (z-score)
CNCC(O)c1ccc(O)c(O)c1 [L-Epinephrine] (compound 10 µM)	2.36
CN(C)CCOC(C)(c1ccccc1)c1ccc(Cl)cc1 (stereo not given) [Chlorphenoxamine] (compound 10 µM)	-7.36
C=C[C@@]1(C)CC(=O)[C@]2(O)[C@@]3(C)[C@@H](O)CCC(C)(C)[C@@H]3[C@H](O)[C@H](OC(C)=O)[C@@]2(C)O1 [Forskolin] (compound 10 µM)	2.65
O=c1ccccn1CC1(O)CCN(Cc2ccccc2)CC1 (compound 10 µM)	-0.19

I am curious: what phospho-S6 immunofluorescence (z-score) value has been reported for N[C@@H](CCC(=O)O)C(=O)[O-].[Na+] [L-Glutamic acid monosodium salt] (compound 10 µM) ? -0.6

I am curious: what phospho-S6 immunofluorescence (z-score) value has been reported for O=C(O)CCc1ccc(NCc2cccc(Oc3ccccc3)c2)cc1 (compound 10 µM) ? 0.32

I am curious: what phospho-S6 immunofluorescence (z-score) value has been reported for N#Cc1ccc2[nH]cc(CCCCN3CCN(c4ccc5oc(C(N)=O)cc5c4)CC3)c2c1 [Vilazodone (Hydrochloride)] (compound 10 µM) ? -0.76
